- assay_text: Chemical stability of the compound in sodium phosphate buffer assessed as loss of purity 0.5 mM at pH 7.4 at 37 degC after 1 week by UHLPC-UV analysis
- Format: physicochemical
- run_conditions: read-out: Drug degradation
recorded_endpoint: degraded at 168 h, 500 µM (%)
Give bare numbers, in %.

INPUT: Could you share which degraded at 168 h, 500 µM value was measured for `CCCC[C@H](NC(=O)[C@H](Cc1ccc(OS(=O)(=O)O)cc1)NC(=O)[C@H](CC(=O)O)NC(=O)COCCOCCNC(=O)COCCOCCNC(=O)CC[C@H](NC(=O)CCCCCCCCCCCCCCCCC(=O)O)C(=O)O)C(=O)NCC(=O)N[C@@H](Cc1c[nH]c2ccccc12)C(=O)N[C@@H](CCCC)C(=O)N[C@@H](CC(=O)O)C(=O)N[C@@H](Cc1ccccc1)C(N)=O` ?
OUTPUT: 0.8

###

- assay_system: Gastrin/cholecystokinin type B receptor (Homo sapiens)
- assay_text: Agonist activity at human CCK2R expressed in human 1321N1 cells assessed as IP1 accumulation after 1 hr by HTRF assay
- Format: functional, cell-based
Activity calls are given as the source filed them. No cut-off for these calls is given here. Numbered stars: 1 amine (or outer) side, 2 acyl side, 3 side chain; on linkers, the order of the positions; unused ones are H or OH. Square brackets hold non-standard residues; d marks the D form. Peptide text beside a SMILES is read from it. * marks the point of attachment. sY = N[C@@H](Cc1ccc(OS(=O)(=O)O)cc1)C(=O)O; C18 diacid = O=C(O)CCCCCCCCCCCCCCCCC(=O)*; γGlu = O=C(O)[C@H](CCC(=O)[*:2])N[*:1]; Nle = CCCC[C@H](N)C(=O)O; AEEA = NCCOCCOCC(=O)O
recorded_endpoint: pEC50

CCCC[C@H](NC(=O)[C@H](Cc1ccc(OS(=O)(=O)O)cc1)NC(=O)[C@H](CC(=O)O)NC(=O)COCCOCCNC(=O)COCCOCCNC(=O)CC[C@H](NC(=O)CCCCCCCCCCCCCCCCC(=O)O)C(=O)O)C(=O)NCC(=O)N[C@@H](Cc1c[nH]c2ccccc12)C(=O)N[C@@H](C)C(=O)N[C@@H](CC(=O)O)C(=O)N[C@@H](Cc1ccccc1)C(N)=O ({C18 diacid-γGlu-AEEA-AEEA}-D[sY][Nle]GWADF-NH2)	inactive
CCCC[C@H](NC(=O)[C@H](Cc1ccc(OS(=O)(=O)O)cc1)NC(=O)[C@H](CC(=O)O)NC(=O)COCCOCCNC(=O)COCCOCCNC(=O)CC[C@H](NC(=O)CCCCCCCCCCCCCCCCC(=O)O)C(=O)O)C(=O)NCC(=O)N[C@@H](Cc1c[nH]c2ccccc12)C(=O)N[C@@H](CO)C(=O)N[C@@H](CC(=O)O)C(=O)N[C@@H](Cc1ccccc1)C(N)=O ({C18 diacid-γGlu-AEEA-AEEA}-D[sY][Nle]GWSDF-NH2)	inactive
CCCC[C@H](NC(=O)[C@H](Cc1ccc(OS(=O)(=O)O)cc1)NC(=O)[C@H](CC(=O)O)NC(=O)COCCOCCNC(=O)COCCOCCNC(=O)CC[C@H](NC(=O)CCCCCCCCCCCCCCCCC(=O)O)C(=O)O)C(=O)NCC(=O)N[C@@H](Cc1c[nH]c2ccccc12)C(=O)N[C@@H](Cc1ccccc1)C(=O)N[C@@H](CC(=O)O)C(=O)N[C@@H](Cc1ccccc1)C(N)=O ({C18 diacid-γGlu-AEEA-AEEA}-D[sY][Nle]GWFDF-NH2)	inactive

###

Kindly supply the reported EC50 values for the records listed here.
- assay_system: Cholecystokinin receptor type A (Homo sapiens)
- Sequence (P32238 whole entry): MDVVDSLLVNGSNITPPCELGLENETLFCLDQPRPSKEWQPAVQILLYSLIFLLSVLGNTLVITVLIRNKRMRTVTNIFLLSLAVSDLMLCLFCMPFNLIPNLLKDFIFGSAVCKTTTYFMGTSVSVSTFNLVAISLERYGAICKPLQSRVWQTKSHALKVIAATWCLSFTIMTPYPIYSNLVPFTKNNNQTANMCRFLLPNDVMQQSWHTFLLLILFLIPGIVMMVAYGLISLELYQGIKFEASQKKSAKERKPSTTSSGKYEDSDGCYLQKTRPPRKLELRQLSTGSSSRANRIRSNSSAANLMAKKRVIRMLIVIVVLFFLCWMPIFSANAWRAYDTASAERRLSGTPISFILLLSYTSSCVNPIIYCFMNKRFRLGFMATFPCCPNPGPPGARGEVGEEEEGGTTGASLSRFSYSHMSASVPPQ
- assay_text: Agonist activity at human CCK1R expressed in human 1321N1 cells assessed as IP1 accumulation after 1 hr by HTRF assay
Numbered stars: 1 amine (or outer) side, 2 acyl side, 3 side chain; on linkers, the order of the positions; unused ones are H or OH. Square brackets hold non-standard residues; d marks the D form. Peptide text beside a SMILES is read from it. * marks the point of attachment. sY = N[C@@H](Cc1ccc(OS(=O)(=O)O)cc1)C(=O)O; C18 diacid = O=C(O)CCCCCCCCCCCCCCCCC(=O)*; NMe1Nal = CN[C@@H](Cc1cccc2ccccc12)C(=O)O; γGlu = O=C(O)[C@H](CCC(=O)[*:2])N[*:1]; Glutaryl = O=C(CCCC(=O)[*:2])[*:1]; dNMeD = CN[C@H](CC(=O)O)C(=O)O; Nle = CCCC[C@H](N)C(=O)O; Dap = NC[C@H](N)C(=O)O; AEEA = NCCOCCOCC(=O)O
Give bare numbers, in µM.

CCCC[C@H](NC(=O)[C@H](CNC(=O)CCCC(=O)O)NC(=O)[C@H](CC(=O)O)NC(=O)COCCOCCNC(=O)COCCOCCNC(=O)CC[C@H](NC(=O)CCCCCCCCCCCCCCCCC(=O)O)C(=O)O)C(=O)NCC(=O)N[C@@H](Cc1c[nH]c2ccccc12)C(=O)N[C@@H](CCCC)C(=O)N[C@@H](CC(=O)O)C(=O)N[C@@H](Cc1ccccc1)C(N)=O ({C18 diacid-γGlu-AEEA-AEEA}-D[Dap](Glutaryl)[Nle]GW[Nle]DF-NH2)	0.229
CSCC[C@H](NC(=O)[C@H](Cc1c[nH]c2ccccc12)NC(=O)CNC(=O)[C@H](Cc1ccc(O)cc1)NC(=O)[C@H](C)NC(=O)[C@H](CCC(=O)O)NC(=O)[C@H](CCC(=O)O)NC(=O)[C@H](CCC(=O)O)NC(=O)[C@H](CCC(=O)O)NC(=O)[C@H](CCC(=O)O)NC(=O)[C@H](CC(C)C)NC(=O)[C@H](Cc1c[nH]c2ccccc12)NC(=O)[C@@H]1CCCN1C(=O)CNC(=O)[C@@H]1CCC(=O)N1)C(=O)N[C@@H](CC(=O)O)C(=O)N[C@@H](Cc1ccccc1)C(N)=O	0.269

Now turn to the next molecule.
INPUT: # get_value(readout= EC50, system= Cholecystokinin receptor type A (Homo sapiens)) for CCCC[C@H](NC(=O)[C@H](Cc1c[nH]c2ccccc12)NC(=O)CNC(=O)[C@H](CC(C)C)NC(=O)[C@H](Cc1ccc(OS(=O)(=O)O)cc1)NC(=O)[C@H](CC(=O)O)NC(=O)COCCOCCNC(=O)COCCOCCNC(=O)CC[C@H](NC(=O)CCCCCCCCCCCCCCCCC(=O)O)C(=O)O)C(=O)N(C)[C@H](CC(=O)O)C(=O)N(C)[C@@H](Cc1cccc2ccccc12)C(N)=O ({C18 diacid-γGlu-AEEA-AEEA}-D[sY]LGW[Nle][dNMeD][NMe1Nal]-NH2)
OUTPUT: 0.000407

###

- assay_system: Gastrin/cholecystokinin type B receptor (Homo sapiens, UniProt P32239)
- Sequence (P32239 whole entry): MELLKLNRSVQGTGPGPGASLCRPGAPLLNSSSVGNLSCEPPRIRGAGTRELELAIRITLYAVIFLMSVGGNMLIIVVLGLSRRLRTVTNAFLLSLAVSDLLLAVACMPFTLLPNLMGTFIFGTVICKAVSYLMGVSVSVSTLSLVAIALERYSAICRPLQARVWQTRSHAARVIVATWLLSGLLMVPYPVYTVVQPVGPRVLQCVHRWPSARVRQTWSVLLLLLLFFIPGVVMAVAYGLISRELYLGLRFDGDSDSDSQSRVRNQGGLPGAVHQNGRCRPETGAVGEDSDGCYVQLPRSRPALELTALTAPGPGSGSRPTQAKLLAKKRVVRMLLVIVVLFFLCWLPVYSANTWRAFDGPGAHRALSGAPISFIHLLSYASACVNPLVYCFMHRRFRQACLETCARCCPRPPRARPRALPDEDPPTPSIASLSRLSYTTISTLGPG
- assay_text: Displacement of [125I]-CCK-8 from human CCK2R expressed in human 1321N1 cell membranes after 2 hrs by SPA assay
Numbered stars: 1 amine (or outer) side, 2 acyl side, 3 side chain; on linkers, the order of the positions; unused ones are H or OH. Square brackets hold non-standard residues; d marks the D form. Peptide text beside a SMILES is read from it. * marks the point of attachment. Phe(4-CH2SO3H) = N[C@@H](Cc1ccc(CS(=O)(=O)O)cc1)C(=O)O; sY = N[C@@H](Cc1ccc(OS(=O)(=O)O)cc1)C(=O)O; C18 diacid = O=C(O)CCCCCCCCCCCCCCCCC(=O)*; γGlu = O=C(O)[C@H](CCC(=O)[*:2])N[*:1]; 1Nal = N[C@@H](Cc1cccc2ccccc12)C(=O)O; Hyp = O=C(O)[C@@H]1C[C@@H](O)CN1; NMeF = CN[C@@H](Cc1ccccc1)C(=O)O; NMeD = CN[C@@H](CC(=O)O)C(=O)O; dNMeD = CN[C@H](CC(=O)O)C(=O)O; Nle = CCCC[C@H](N)C(=O)O; X1 = O=C(Cc1ccc(O)cc1)*; AEEA = NCCOCCOCC(=O)O
Kindly supply the reported pIC50 values for the records listed here.
Answers are plain numbers, as −log10 of the molar value.

Sample answers from the record:
CCCC[C@H](NC(=O)[C@H](Cc1c[nH]c2ccccc12)NC(=O)CNC(=O)[C@H](CC(C)C)NC(=O)[C@H](Cc1ccc(OS(=O)(=O)O)cc1)NC(=O)[C@H](CC(=O)O)NC(=O)COCCOCCNC(=O)COCCOCCNC(=O)CC[C@H](NC(=O)CCCCCCCCCCCCCCCCC(=O)O)C(=O)O)C(=O)N(C)[C@@H](CC(=O)O)C(=O)N[C@@H](Cc1ccccc1)C(N)=O	6.61
CCCC[C@H](NC(=O)[C@H](Cc1c[nH]c2ccccc12)NC(=O)CNC(=O)[C@H](CC(C)C)NC(=O)[C@H](Cc1ccc(OS(=O)(=O)O)cc1)NC(=O)[C@H](CC(=O)O)NC(=O)COCCOCCNC(=O)COCCOCCNC(=O)CC[C@H](NC(=O)CCCCCCCCCCCCCCCCC(=O)O)C(=O)O)C(=O)N[C@@H](CC(=O)O)C(=O)N(C)[C@@H](Cc1ccccc1)C(N)=O	9.54
CCCC[C@H](NC(=O)[C@H](Cc1ccc(OS(=O)(=O)O)cc1)NC(=O)[C@H](CC(=O)O)NC(=O)COCCOCCNC(=O)COCCOCCNC(=O)CC[C@H](NC(=O)CCCCCCCCCCCCCCCCC(=O)O)C(=O)O)C(=O)NCC(=O)N[C@@H](Cc1c[nH]c2ccccc12)C(=O)N[C@@H](CCCC)C(=O)N[C@@H](CC(N)=O)C(=O)N[C@@H](Cc1ccccc1)C(N)=O ({C18 diacid-γGlu-AEEA-AEEA}-D[sY][Nle]GW[Nle]NF-NH2)	6.51
CCCC[C@H](NC(=O)[C@H](Cc1c[nH]c2ccccc12)NC(=O)[C@H](CCC(=O)O)NC(=O)[C@H](CCCC)NC(=O)[C@H](Cc1ccc(OS(=O)(=O)O)cc1)NC(=O)[C@H](CC(=O)O)NC(=O)COCCOCCNC(=O)COCCOCCNC(=O)CC[C@H](NC(=O)CCCCCCCCCCCCCCCCC(=O)O)C(=O)O)C(=O)N[C@@H](CC(=O)O)C(=O)N[C@@H](Cc1ccccc1)C(N)=O ({C18 diacid-γGlu-AEEA-AEEA}-D[sY][Nle]EW[Nle]DF-NH2)	9.82
CCCC[C@H](NC(=O)[C@H](Cc1c[nH]c2ccccc12)NC(=O)CNC(=O)[C@H](CC(C)C)NC(=O)[C@H](Cc1ccc(OS(=O)(=O)O)cc1)NC(=O)[C@H](CC(=O)O)NC(=O)COCCOCCNC(=O)COCCOCCNC(=O)CC[C@H](NC(=O)CCCCCCCCCCCCCCCCC(=O)O)C(=O)O)C(=O)N(C)[C@H](CC(=O)O)C(=O)N[C@@H](Cc1ccccc1)C(N)=O	5.25
CCCC[C@H](NC(=O)[C@H](Cc1ccc(OS(=O)(=O)O)cc1)NC(=O)[C@H](CC(=O)O)NC(=O)COCCOCCNC(=O)COCCOCCNC(=O)CC[C@H](NC(=O)CCCCCCCCCCCCCCCCC(=O)O)C(=O)O)C(=O)NCC(=O)N[C@@H](Cc1c[nH]c2ccccc12)C(=O)N[C@@H](CCCC)C(=O)N1C[C@H](O)C[C@H]1C(=O)N[C@@H](Cc1ccccc1)C(N)=O ({C18 diacid-γGlu-AEEA-AEEA}-D[sY][Nle]GW[Nle][Hyp]F-NH2)	6.34

// input: 4 compounds below; output: pIC50 for each
1. CCCC[C@H](NC(=O)[C@H](Cc1ccc(CS(=O)(=O)O)cc1)NC(=O)[C@H](CC(=O)O)NC(=O)COCCOCCNC(=O)[C@H](CCCCN)NC(=O)COCCOCCNC(=O)COCCOCCNC(=O)CC[C@H](NC(=O)CCCCCCCCCCCCCCCCC(=O)O)C(=O)O)C(=O)NCC(=O)N[C@@H](Cc1c[nH]c2ccccc12)C(=O)N[C@@H](CCCC)C(=O)N(C)[C@H](CC(=O)O)C(=O)N(C)[C@@H](Cc1ccccc1)C(N)=O ({C18 diacid-γGlu-AEEA-AEEA}-K[AEEA]D[Phe(4-CH2SO3H)][Nle]GW[Nle][dNMeD][NMeF]-NH2)
2. CCCC[C@H](NC(=O)[C@H](Cc1ccc(OS(=O)(=O)O)cc1)NC(=O)[C@H](CC(=O)O)NC(=O)COCCOCCNC(=O)COCCOCCNC(=O)CC[C@H](NC(=O)CCCCCCCCCCCCCCCCC(=O)O)C(=O)O)C(=O)NCC(=O)N[C@@H](Cc1c[nH]c2ccccc12)C(=O)N[C@@H](CCCC)C(=O)N(C)[C@@H](CC(=O)O)C(=O)N[C@@H](Cc1cccc2ccccc12)C(N)=O ({C18 diacid-γGlu-AEEA-AEEA}-D[sY][Nle]GW[Nle][NMeD][1Nal]-NH2)
3. CCCC[C@H](NC(=O)[C@H](Cc1ccc(OS(=O)(=O)O)cc1)NC(=O)[C@H](CC(=O)O)NC(=O)COCCOCCNC(=O)COCCOCCNC(=O)CC[C@H](NC(=O)CCCCCCCCCCCCCCCCC(=O)O)C(=O)O)C(=O)NCC(=O)N[C@@H](Cc1c[nH]c2ccccc12)C(=O)N[C@@H](CCCC)C(=O)N[C@@H](CC(=O)O)C(=O)N[C@@H](Cc1ccc(O)cc1)C(N)=O ({C18 diacid-γGlu-AEEA-AEEA}-D[sY][Nle]GW[Nle]DY-NH2)
4. CCCC[C@H](NC(=O)Cc1ccc(O)cc1)C(=O)NCC(=O)N[C@@H](Cc1c[nH]c2ccccc12)C(=O)N[C@@H](CCCC)C(=O)N(C)[C@@H](CC(=O)O)C(=O)N[C@@H](Cc1ccccc1)C(N)=O (X1-[Nle]GW[Nle][NMeD]F-NH2)

OUTPUT:
1. 6.89
2. 6.94
3. 9.88
4. 5.52
